Target of assay: human ether-à-go-go-related gene (hERG) potassium channel (human);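 note: peak tail current of the secondary pulse compared with the same well before compound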
Sequence (Q12809 whole entry, looked up): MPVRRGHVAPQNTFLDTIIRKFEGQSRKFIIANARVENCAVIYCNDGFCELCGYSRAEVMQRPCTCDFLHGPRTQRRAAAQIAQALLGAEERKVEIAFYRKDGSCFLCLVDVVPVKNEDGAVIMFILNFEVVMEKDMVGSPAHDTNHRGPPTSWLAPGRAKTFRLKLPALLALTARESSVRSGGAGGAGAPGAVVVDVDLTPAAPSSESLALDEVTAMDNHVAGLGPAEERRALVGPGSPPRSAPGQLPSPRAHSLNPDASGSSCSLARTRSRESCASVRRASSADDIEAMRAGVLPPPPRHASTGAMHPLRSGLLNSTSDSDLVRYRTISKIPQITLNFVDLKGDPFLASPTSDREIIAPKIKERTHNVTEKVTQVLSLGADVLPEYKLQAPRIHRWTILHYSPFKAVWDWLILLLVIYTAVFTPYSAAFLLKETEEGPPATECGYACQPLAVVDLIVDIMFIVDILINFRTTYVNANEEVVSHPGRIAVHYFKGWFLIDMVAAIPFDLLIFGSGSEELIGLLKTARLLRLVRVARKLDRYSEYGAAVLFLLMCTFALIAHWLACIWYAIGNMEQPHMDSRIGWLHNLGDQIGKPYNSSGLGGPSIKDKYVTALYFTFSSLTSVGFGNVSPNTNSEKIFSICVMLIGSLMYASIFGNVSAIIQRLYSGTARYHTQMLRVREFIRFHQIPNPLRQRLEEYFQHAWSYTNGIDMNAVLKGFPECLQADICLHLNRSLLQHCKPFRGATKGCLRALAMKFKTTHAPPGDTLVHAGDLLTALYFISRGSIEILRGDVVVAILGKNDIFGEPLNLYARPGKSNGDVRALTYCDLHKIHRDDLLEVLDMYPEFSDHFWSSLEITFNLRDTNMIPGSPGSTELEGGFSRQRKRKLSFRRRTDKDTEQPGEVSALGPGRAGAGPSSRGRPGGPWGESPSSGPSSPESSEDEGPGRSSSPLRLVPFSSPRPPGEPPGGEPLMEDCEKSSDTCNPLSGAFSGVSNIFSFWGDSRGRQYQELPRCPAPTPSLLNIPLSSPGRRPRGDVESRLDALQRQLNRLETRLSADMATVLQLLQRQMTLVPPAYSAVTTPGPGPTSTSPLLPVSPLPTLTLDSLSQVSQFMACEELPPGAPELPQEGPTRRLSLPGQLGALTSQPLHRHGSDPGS
Experiment summary: primary screen, population patch clamp on CHO cells stably expressing hERG; higher = less effect of the substance
About 14,000 (4.5%) of roughly 310,000 compounds showed an effect of 50% or more. The effect is printed as a negative number. This excerpt belongs to a sample that is enriched for strong results.
Property measured: hERG current change (%, negative = inhibition) at 10uM

{"Molecule": "CCOc1cc(/C=N\\Nc2ncc(F)c(N3CCOCC3)n2)ccc1Oc1nc(Cl)ncc1F", "Assay value": "-51.8%"}
{"Molecule": "CC(C)(C)c1ccc(COc2ccsc2C(=O)O)cc1", "Assay value": "-6.72%"}
{"Molecule": "O=C1CSC(c2cn(-c3ccccc3)nc2-c2cccs2)N1Cc1ccccc1 (centres unmarked)", "Assay value": "-1.38%"}
{"Molecule": "CCCC(=O)NC(=S)Nc1sc2c(c1C(N)=O)CCC2", "Assay value": "11.7%"}
{"Molecule": "CC1CCCCN1CCNC(=O)C1CC(=O)N(c2ccc(F)c(Cl)c2)C1 (centres unmarked)", "Assay value": "-56.9%"}
